- System: A549 Human NSCLC Cell Lines
- Assay Comment: BrdU incorporation ELISA, relative cell proliferation of A549 cells, 48 hours
- Type: cell-based
- Condition Set: A549 shMer1-G8, 48 hours, BrdU assay
- Experimental: The relative cell proliferation was determined via a BrdU incorporation ELISA. IC50 values were determined by non-linear regression of data from at least three independent experiments performed in triplicate (see Table 3).
Attribute: IC50
Answer format: numeric, µM implied, no suffix.

- Molecule: "N.N.[Cl][Pt][Cl] [Cispl, cisplatin]"
  IC50 [µM]: 1

Note: attention shifts to another entry.
### Prompt Check the records and state IC50 for N.N.O=C([O-])C1(C(=O)[O-])CCC1.[Pt+2]
### Response 7.2
